Listed below: pIC50 values for each entry.
target: CCR2 (Homo sapiens); experiment: calcium flux assay; settings: read-out: IC50 Ca++ flux
Sequence (P41597 whole entry): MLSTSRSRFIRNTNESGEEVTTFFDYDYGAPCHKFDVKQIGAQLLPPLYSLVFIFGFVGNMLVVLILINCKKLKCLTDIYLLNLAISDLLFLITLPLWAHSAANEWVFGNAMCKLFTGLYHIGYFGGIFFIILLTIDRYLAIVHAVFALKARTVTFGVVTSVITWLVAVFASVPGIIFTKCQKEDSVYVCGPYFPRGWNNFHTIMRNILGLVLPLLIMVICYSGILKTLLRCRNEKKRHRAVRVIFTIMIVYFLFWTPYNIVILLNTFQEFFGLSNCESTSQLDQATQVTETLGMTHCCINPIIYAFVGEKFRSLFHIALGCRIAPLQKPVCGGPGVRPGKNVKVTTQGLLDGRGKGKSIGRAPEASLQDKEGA
pIC50: −log10 of the molar value.

The molecule O=C(NCc1cc(C(F)(F)F)cc(C(F)(F)F)c1)C1(CC2CC2)CCN(CC2CCOCC2)C1 (stereo not shown) showed pIC50 equal to > 6.70

The molecule `O=C(NCc1cc(C(F)(F)F)cc(C(F)(F)F)c1)C1(CC2CCOCC2)CCN(Cc2ccc3c(c2)OCO3)CC1` showed pIC50 equal to < 6.00

The molecule `CC(C)CC1(C(=O)NCc2cc(C(F)(F)F)cc(C(F)(F)F)c2)CCN(Cc2ccc3c(c2)OCO3)CC1` showed pIC50 equal to 6.00 to 6.70

The molecule `CC(C)CC1(C(=O)N2CCN(c3cccc(C(F)(F)F)c3)CC2)CCN(Cc2ccc3c(c2)OCO3)CC1` showed pIC50 equal to < 6.00

The molecule `CC(C)CC1(C(=O)N[C@H](C)c2cc(C(F)(F)F)cc(C(F)(F)F)c2)CCN(Cc2ccc3c(c2)OCO3)CC1` showed pIC50 equal to < 6.00

The molecule `COCC1(C(=O)NCc2cc(C(F)(F)F)cc(C(F)(F)F)c2)CCN(CC2CCOCC2)CC1` showed pIC50 equal to < 6.00

The molecule `N#Cc1ccc(Oc2ccc(CN3CCC(CC4CC4)(C(=O)NCc4cc(C(F)(F)F)cc(C(F)(F)F)c4)CC3)cn2)cc1` showed pIC50 equal to 6.00 to 6.70
